The compounds below each have a reported pIC50 tested on HPK1 (Homo sapiens (Human), UniProt Q92918); the values come from various publications.
pIC50: −log10 of the molar value.

- COMPOUND: "CN(C)C(C)(C)c1nc(Nc2ccc(-c3cnc4cc(F)ccn34)c3c2C(=O)NC3)ccc1[C@@H]1CCOC1"
  pIC50: "6.00 to 7.00"
- COMPOUND: "CCC(C)(C)n1cc2c(N3C[C@@H](C)[C@@H](N)C3)c(NC(=O)c3ccc(=O)n(-c4c(F)cccc4F)n3)ccc2n1"
  pIC50: "> 7.00"
- COMPOUND: "C/C(Nc1cnn(C)c1)=C1/C(=O)Nc2ccc(-c3cnccc3C)cc21"
  pIC50: "> 7.30"
- COMPOUND: "CNCc1cc(C)c(-c2cc3c(-c4ccc5c(c4)OCC4CN(CCC#N)CCN54)n[nH]c3cc2C#N)c(F)c1 (stereo not drawn)"
  pIC50: "≥ 8.00"
- COMPOUND: "C/C(Nc1cnn(C2CC2)c1)=C1/C(=O)Nc2cnc(-c3cnccc3C)cc21"
  pIC50: "> 7.30"
- COMPOUND: "O=C1NCc2c(-c3cnc4cc(F)ccn34)ccc(Nc3ccc([C@H]4CCOC4)c(CN4CCCC4)n3)c21"
  pIC50: "> 7.00"
